// data source = PubChem BioAssay AID1159580

Assay text: chemical genetic growth profiling, strain panel (AID 1159580);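 note: tested at 20 µM; growth read once vehicle control cultures reached saturation at 30 °C; lower values mean less growth of the strain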
Conditions: S. cerevisiae deletion strains, growth OD, locus YNL248C, strain rpa49
Among all 5,500 compounds or so, about 2,000 (36%) were called active. Inconclusive results (about 18%) are left out. Cut-off read from the data, not from the text of the source: active = normalized growth mostly below about 0.91 (no sharp cut-off); inconclusive = no clear call, values can overlap the other calls; inactive = mostly above about 0.92. Some of the results follow.
Select the correct class. Options are active, inactive and nothing else.

Before answering, review these 7 worked examples.
CC1CC[C@@]2(OC1)O[C@H]1CC3C4CC[C@@H]5C[C@@H](O)CC[C@]5(C)C4CC[C@]3(C)[C@H]1[C@@H]2C (stereo partly drawn)
inactive
C[C@@H]1CC[C@@]2(NC1)O[C@H]1C[C@H]3C4CC=C5C[C@@H](O)CC[C@]5(C)C4CC[C@]3(C)C1[C@@H]2C (stereo partly drawn)
active
C[C@@H]1CC[C@@]2(OC1)OC1CC3C4CC=C5C[C@@H](O)CC[C@]5(C)C4CC[C@]3(C)C1[C@@H]2C (stereo partly drawn)
inactive
CC(=O)[C@@]1(O)CCC2C3C[C@H](C)C4=CC(=O)C=CC4(C)[C@@]3(F)[C@@H](O)C[C@@]21C (stereo partly drawn)
inactive
Cc1[nH]ccc2c1[nH]c1cc(=O)ccc12
inactive
C[C@@H]1CC[C@@]2(OC1)O[C@H]1CC3C4CC[C@H]5C[C@@H](O)CC[C@]5(C)C4CC[C@]3(C)[C@H]1[C@@H]2C (stereo partly drawn)
inactive
CC1CCC2(OC1)OC1CC3C4CC[C@H]5C[C@@H](O)CC[C@]5(C)C4CC(=O)[C@]3(C)C1C2C (stereo partly drawn)
inactive

# input for lookup
Request: // outcome(item) with item = COc1cccc2c(C)cc(=O)[nH]c12
Response: inactive

* * *

Assay text: chemical genetic growth profiling, strain panel (AID 1159580);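 note: tested at 20 µM; growth read once vehicle control cultures reached saturation at 30 °C; lower values mean less growth of the strain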
Conditions: S. cerevisiae deletion strains, growth OD, locus YDL192W, strain arf1
The campaign covered roughly 5,500 compounds. About 2,000 (36%) were called active. About 18% were inconclusive and are not listed. Rule as the data show it: active = normalized growth mostly below about 0.91 (no sharp cut-off); inconclusive = no clear call, values can overlap the other calls; inactive = mostly above about 0.92. The list shows a part of the results.
Select the correct class. Options are active, inactive and nothing else.

Before answering, review these 2 worked examples.
CC(C)C1COc2cc3oc(=O)ccc3cc2O1 (stereo unspecified)
active
NC(N)=NC(=O)c1nc(Cl)c(N)nc1N
inactive

Request: // outcome(item) with item = C[C@@H]1O[C@@H](OC[C@H]2OC(Oc3c(-c4ccc(O)c(O)c4)oc4cc(O)cc(O)c4c3=O)[C@H](O)[C@@H](O)[C@@H]2O)[C@H](O)[C@H](O)[C@H]1O (stereo partly specified)
Response: inactive

Request: // outcome(item) with item = CNC(=O)Oc1cccc2c1OC(C)(C)O2
Response: inactive

* * *

Assay text: chemical genetic growth profiling, strain panel (AID 1159580);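 note: tested at 20 µM; growth read once vehicle control cultures reached saturation at 30 °C; lower values mean less growth of the strain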
Conditions: S. cerevisiae deletion strains, growth OD, locus YPL051W, strain arl3, active compounds read low
The whole screen tested about 5,500 compounds, of which about 2,000 (36%) were called active. Inconclusive results (about 18%) are left out. The list shows a part of the results. Where a SMILES comes first, the peptide text is derived from it.
Field: label. Allowed values: condition met (normalized growth < 1) or condition not met (normalized growth >= 1).

CCCCCCCCCCCC1=C(O)C(=O)C=C(O)C1=O
condition met

Request: I wonder whether COC(=O)[C@H](Cc1ccccc1)NC(=O)[C@@H](N)CC(=O)O (H-Asp-Phe-OMe) has normalized growth below 1. Can you tell?
Response: condition not met
